Molecular target: Pig IR (pig, UniProt F1SCL0 28-1382)
Test: cell-based or functional assay
quantity kind: Pig IR phosphorylation [EC 50 nM] mean (nM)
Your answer should be a plain number; it is taken to be in nM.

// known answers, use as guide
scl-Fc fusion protein INS011 (Fc fusion) SFVNQHLCGSHLVEALHLVCGERGFAYTPKTGSYPGGVGIVEQCCTSICSLEQLENYCGGEAEDLQVGQVELGGGPGAGSLQPEGSLQGGPSVFLFPPKPKDTLMISRTPEVTCVVVDVSHEDPEVKFNWYVDGVEVHNAKTKPREEQYNSTYRVVSVLTVLHQDWLNGKEYKCKVSNKALPAPIEKTISKAKGQPREPQVYTLPPSRDELTKNQVSLTCLVKGFYPSDIAVEWESNGQPENNYKTTPPVLDSDGSFFLYSKLTVDKSRWQQGNVFSCSVMHEALHNHYTQKSLSLSPGGGGGSAESKYGPPCPPCPA = 39.6
scl-Fc fusion protein INS010 (Fc fusion) SFVNQHLCGSHLVEALHLVCGERGFAYTPKTEEYPGDVGIVEQCCTSICSLEQLENYCGGEAEDLQVGQVELGGGPGAGSLQPEGSLQGGPSVFLFPPKPKDTLMISRTPEVTCVVVDVSHEDPEVKFNWYVDGVEVHNAKTKPREEQYNSTYRVVSVLTVLHQDWLNGKEYKCKVSNKALPAPIEKTISKAKGQPREPQVYTLPPSRDELTKNQVSLTCLVKGFYPSDIAVEWESNGQPENNYKTTPPVLDSDGSFFLYSKLTVDKSRWQQGNVFSCSVMHEALHNHYTQKSLSLSPGGGGGSAESKYGPPCPPCPA = 23.5

Now look at this one.
// query State, in one line, measured Pig IR phosphorylation [EC 50 nM] mean of scl-Fc fusion protein INS005 (Fc fusion) SFVNQHLCGSHLVEALHLVCGERGFAYTDKTEEYPGDVGIVEQCCTSICSLEQLENYCGGEAEDLQVGQVELGGGPGAGSLQPEGSLQGGPSVFLFPPKPKDTLMISRTPEVTCVVVDVSHEDPEVKFNWYVDGVEVHNAKTKPREEQYNSTYRVVSVLTVLHQDWLNGKEYKCKVSNKALPAPIEKTISKAKGQPREPQVYTLPPSRDELTKNQVSLTCLVKGFYPSDIAVEWESNGQPENNYKTTPPVLDSDGSFFLYSKLTVDKSRWQQGNVFSCSVMHEALHNHYTQKSLSLSPGGGGGSAESKYGPPCPPCPA
// result 61.4
